- study-target: human lung tryptase
- procedure-summary: β-Tryptase In-Vitro Enzyme Assay
- cond: human lung tryptase 1 nM, substrate H-D-HHT-Ala-Arg-pNa 500 μM, pH 7.4, room temperature
Listed compounds paired with reported pIC50
Please note pIC50 is a logarithmic value: minus log10 of concentration in mol/L. Answer with that number alone.

Cc1ccc(-c2ccc(C(=O)N3CCC4(CC3)COc3ccc(CN)cc34)o2)cc1 [Cpd 131]	7.14
NCc1ccc2c(c1)C1(CCN(C(=O)c3ccc(-n4cc(-c5nc6ccccc6o5)cn4)cc3)CC1)CO2 [Cpd 17]	6.54
COCCCOc1cccc(/C=C/C(=O)N2CCC3(CC2)COc2ccc(CN)cc23)c1 [Cpd 301]	5.82

Query: Give recorded pIC50 with human lung tryptase for the following compound: Cc1ccsc1/C=C/C(=O)N1CCC2(CC1)COc1ccc(CN)cc12 [Cpd 356]
Result: 6.74

Query: Subsequent entry: NCc1ccc2c(c1)C1(CCN(C(=O)c3cc4c(s3)CCC4)CC1)CO2 [Cpd 246]
Result: 6.70

Query: Subsequent entry: NCc1ccc2c(c1)C1(CCN(C(=O)c3ccccc3)CC1)CO2 [Cpd 36]
Result: 6.09

Query: Subsequent entry: NCc1ccc2c(c1)C1(CCN(C(=O)/C=C/c3cccc(F)c3)CC1)CO2 [Cpd 161]
Result: 7.28

Query: Subsequent entry: NCc1ccc2c(c1)C1(CCN(C(=O)Cc3cccc(Oc4ccccc4F)c3)CC1)CO2 [Cpd 210]
Result: 7.59

Query: Subsequent entry: NCc1ccc2c(c1)C1(CCN(C(=O)CC3c4ccccc4Oc4ccccc43)CC1)CO2 [Cpd 293]
Result: 5.92

Query: Subsequent entry: NCc1ccc2c(c1)C1(CCN(C(=O)c3ccc(C4CCCCC4)cc3)CC1)CO2 [Cpd 73]
Result: 5.60

Query: Subsequent entry: NCc1ccc2c(c1)C1(CCN(C(=O)c3ccc(C(=O)c4ccccc4)cc3)CC1)CO2 [Cpd 6]
Result: 5.24

Query: Subsequent entry: NCc1ccc2c(c1)C1(CCN(Cc3ccc(Cl)c(Cl)c3)CC1)CO2 [Cpd 158]
Result: 5.35

Query: Subsequent entry: CSc1sc(C(=O)N2CCC3(CC2)COc2ccc(CN)cc23)c2c1CCCC2 [Cpd 218]
Result: 8.10

Query: Subsequent entry: NCc1ccc2c(c1)C1(CCN(C(=O)/C=C/c3ccccc3)CC1)CO2 [Cpd 109]
Result: 6.68

Query: Subsequent entry: NCc1ccc2c(c1)C1(CCN(C(=O)c3ccc(/C=C\c4ccccc4)o3)CC1)CO2 [Cpd 77]
Result: 7.00

Query: Subsequent entry: COc1ccc(/C=C/C(=O)N2CCC3(CC2)COc2ccc(CN)cc23)cc1 [Cpd 185]
Result: 5.82

Query: Subsequent entry: CC(=O)N/C(=C\c1ccccc1)C(=O)N1CCC2(CC1)COc1ccc(CN)cc12 [Cpd 205]
Result: 6.13

Query: Subsequent entry: NCc1ccc2c(c1)C1(CCN(C(=O)c3ccc(C#Cc4ccccc4)o3)CC1)CN2CCC(=O)O [Cpd 322]
Result: 6.35

Query: Subsequent entry: COc1cccc(-c2ccc(C(=O)N3CCC4(CC3)COc3ccc(CN)cc34)o2)c1 [Cpd 144]
Result: 7.52

Query: Subsequent entry: NCc1ccc2c(c1)C1(CCN(C(=O)c3ccc(Cn4cc(Cl)cn4)o3)CC1)CO2 [Cpd 145]
Result: 6.47

Query: Subsequent entry: NCc1ccc2c(c1)C1(CCN(C(=O)c3sc4cc(Br)ccc4c3Cl)CC1)CO2 [Cpd 230]
Result: 6.85

Query: Subsequent entry: NCc1ccc2c(c1)C1(CCN(C(=O)c3sc(SCc4ccccc4)c4ccccc34)CC1)CO2 [Cpd 240]
Result: 8.74

Query: Subsequent entry: NCc1ccc2c(c1)C1(CCN(C(=O)c3ccc(C(F)(F)F)o3)CC1)CO2 [Cpd 22]
Result: 5.68
